# test-description: Compound gel-forming ability in water (visual inspection, tube tapping assay, tilted tube assay);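 note: peptides mixed with de-ionized water at about 22-25 °C, judged after 20 min by eye plus tube tapping (10 taps, moves counted) and 90° tilt mobility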
# Type: physicochemical
# experimental-parameters: 11% w/w in water

# substance, gel formation at 11% w/w
data = [
    ("Pal-HSYKRPPGFS-(DβNal)-Ile-NH2 [SEQ ID NO:261]", "semisolid gel"),
    ("Pal-SSPHSY-miniPEG-HGDGSFSDEMNTILDNLAARDFINWLIQTKITD-OH [SEQ ID NO:222]", "semisolid gel"),
]
